# ASSAY COMMENT: qHTS for Inhibitors of human tyrosyl-DNA phosphodiesterase 1 (TDP1): qHTS in cells in absence of CPT; also: nearly all actives have a fitted effect of over 55% in size
# PROTOCOL CONDITIONS: DT40 Tdp1-/- hTDP1 cells, no CPT, ATP luminescence, 48 h
The whole screen tested about 420,000 compounds, of which about 64,000 (15%) were called active. About 27% were inconclusive and are not listed. Calls follow the shape of the dose curve; as a rule, active = well fitted inhibition curve with a large enough effect; inconclusive = small, poorly fitted or top-dose-only effect; inactive = flat fitted curve, though single readings scatter. A selection follows.
Output constraint: value belongs to YES (active), NO (inactive)

stdin: Record lookup: outcome of this test for Cn1c(=O)n(C)c2cc(/C=N/NC(=O)c3cccc(Br)c3)ccc21 ?
stdout: NO

stdin: Record lookup: outcome of this test for COc1ccc(/C(N)=N/OC(=O)CCCc2ccccc2)cc1 ?
stdout: NO

stdin: Record lookup: outcome of this test for COCC(=O)N=Nc1c(O)[nH]c2ccccc12 ?
stdout: NO

stdin: Record lookup: outcome of this test for CC(Oc1ccccc1)C(=O)Nc1oc(-c2ccco2)c(-c2ccco2)c1C#N (stereo not given) ?
stdout: NO

stdin: Record lookup: outcome of this test for COc1ccccc1OCCNC(=O)c1cc([N+](=O)[O-])cc([N+](=O)[O-])c1 ?
stdout: NO

stdin: Record lookup: outcome of this test for COc1cccc(-n2c(=S)[nH]c3c(oc4ccccc43)c2=O)c1 ?
stdout: NO

stdin: Record lookup: outcome of this test for COc1ccccc1OCCOc1ccc(/C=C2\C(=N)N3N=C(C)SC3=NC2=O)cc1 ?
stdout: NO

stdin: Record lookup: outcome of this test for CC1(C)OC(=O)C(=CNC(CO)C(=O)O)C(=O)O1 (stereo not given) ?
stdout: NO

stdin: Record lookup: outcome of this test for O=C1C=C(c2ccnc3cc(Cl)ccc23)C[C@@H](c2ccc3c(c2)OCO3)C1 ?
stdout: YES

stdin: Record lookup: outcome of this test for O=C1C=C(c2cccc(Cl)c2)C[C@@H](c2ccc(F)cc2)C1 ?
stdout: NO

----------
# ASSAY COMMENT: qHTS for Inhibitors of human tyrosyl-DNA phosphodiesterase 1 (TDP1): qHTS in cells in absence of CPT; also: nearly all actives have a fitted effect of over 55% in size
# PROTOCOL CONDITIONS: DT40 Tdp1-/- hTDP1 cells, no CPT, ATP luminescence, 48 h
Among all 420,000 compounds or so, about 64,000 (15%) were called active. Another 27% or so got no clear call; they are omitted. Calls come from the whole dose curve; as a rule, active = well fitted inhibition curve with a large enough effect; inconclusive = small, poorly fitted or top-dose-only effect; inactive = flat fitted curve, though single readings scatter. Only a sample is shown.
Output constraint: value belongs to y (active), n (inactive)

stdin: Record lookup: outcome of this test for CCOc1ccc(C(O)Cn2c(=N)n(CCN3CCCCC3)c3ccccc32)cc1 (stereo not given) ?
stdout: y

stdin: Record lookup: outcome of this test for CN(C)c1ccc(/C=c2\[nH]c(=O)/c(=C/c3ccc(N(C)C)cc3)[nH]c2=O)cc1 ?
stdout: n

stdin: Record lookup: outcome of this test for CCOC(=O)c1cnc(SCC(=O)Nc2ccccc2C(=O)OC)nc1N ?
stdout: y

stdin: Record lookup: outcome of this test for C=CCNc1cnn(-c2ccc(C)cc2)c(=O)c1Cl ?
stdout: n

stdin: Record lookup: outcome of this test for CC(C)(C)c1nnc(N/N=C/c2ccc(O)cc2)n(N)c1=O ?
stdout: n

stdin: Record lookup: outcome of this test for CN(CC(=O)NCCc1ccccc1)S(=O)(=O)c1cnc[nH]1 ?
stdout: n

stdin: Record lookup: outcome of this test for Cc1ccccc1OCC(=O)NNC(=O)c1cc(S(=O)(=O)N(C)C)ccc1N1CCCC1 ?
stdout: n

stdin: Record lookup: outcome of this test for Cc1ccccc1OCC(=O)Nc1ccc(N2CCN(C(=O)C(C)C)CC2)c(Cl)c1 ?
stdout: y

stdin: Record lookup: outcome of this test for CCCC(NC(=O)c1ccco1)c1nc2ccccc2[nH]1 (stereo not given) ?
stdout: n

stdin: Record lookup: outcome of this test for CC(=O)CC(CC(=O)NC1CCCCC1)c1ccccc1 (stereo not given) ?
stdout: n

stdin: Record lookup: outcome of this test for CC(NC(=O)c1cccc(S(=O)(=O)N2CCc3ccccc3C2)c1)c1ccco1 (stereo not given) ?
stdout: n

stdin: Record lookup: outcome of this test for Cc1ccccc1OCC(=O)Nc1ccc2c(c1)ncn2C ?
stdout: n

stdin: Record lookup: outcome of this test for Cc1cc(C)nc(SCC(=O)N(C)C)n1 ?
stdout: n

stdin: Record lookup: outcome of this test for CN(C)c1ccc(/C=C2\NC(=S)N(Cc3ccccc3)C2=O)cc1 ?
stdout: y

stdin: Record lookup: outcome of this test for O=C(CNC1CCCCC1)NCC1(c2ccccc2)CCCC1 ?
stdout: y
